# measured-target: CYP3A4 (Homo sapiens, UniProt P08684)
# Construct: purchased BD Biosciences
# Sequence (P08684 whole entry): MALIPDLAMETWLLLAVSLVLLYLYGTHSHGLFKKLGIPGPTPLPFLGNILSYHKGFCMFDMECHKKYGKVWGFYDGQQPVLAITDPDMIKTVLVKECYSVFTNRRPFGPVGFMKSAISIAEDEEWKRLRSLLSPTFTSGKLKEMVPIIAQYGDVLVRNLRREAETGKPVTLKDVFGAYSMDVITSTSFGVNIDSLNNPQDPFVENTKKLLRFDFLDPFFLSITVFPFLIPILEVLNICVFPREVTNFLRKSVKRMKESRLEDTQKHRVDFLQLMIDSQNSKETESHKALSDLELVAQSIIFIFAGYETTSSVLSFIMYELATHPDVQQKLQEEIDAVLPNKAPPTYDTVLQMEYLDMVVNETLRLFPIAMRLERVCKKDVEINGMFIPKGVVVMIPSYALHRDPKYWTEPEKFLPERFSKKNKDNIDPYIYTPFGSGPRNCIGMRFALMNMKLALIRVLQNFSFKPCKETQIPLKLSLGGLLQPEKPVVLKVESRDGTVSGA
# protocol-notes: Metabolic stability in human CYP3A4 Supersomes
# Type: in vitro ADME
# run-conditions: recombinant human CYP3A4 Supersomes, pH 7.4; human CYP3A4 Supersomes; text of Example 3; read-out: calculated average half-life
metric-name: half-life at 0.25 μM

[2H]C([2H])([2H])C(c1ccc(NC(=O)c2c[nH]c3ccccc3c2=O)cc1O)(C([2H])([2H])[2H])C([2H])([2H])[2H] [Compound 100] = 26.5 min

**Query** What value of half-life at 0.25 μM has been reported for the following compound? CC(C)(C)c1ccc(NC(=O)c2c[nH]c3ccccc3c2=O)cc1O [Compound A, reference compound]
**Result** 15.1 min
